- test_system: SARS-CoV-2 Munich strain spike glycoprotein on authentic virus (SARS-CoV-2)
- test: cell-based or functional assay
reported_property: Authentic virus PRNT IC50 (nM)
Give a bare numeral; the unit nM is implied.

Which measured Authentic virus PRNT IC50 value corresponds to Nb99 (VHH) VHH: QVQLVESGGGLVQTGGSLRLSCAASGSTRSIWYSGWYRQAPGKQRELVASLTSGGTTYYPDSMKGRFTISGSSGLNMVYLQMNSLRPEDTAVYSCNVRTGSGVYWGQGTQVTVSS ?
0.452

Data credit: patent US20240043505A1
